src = patent US8569267B2

# TESTED_ON: human cloned 5-HT2C receptor, expressed in CHO cells (Homo sapiens)
# Construct: expressed in transfected cells; host or cells: CHO cells
# Sequence (P28335 33-458): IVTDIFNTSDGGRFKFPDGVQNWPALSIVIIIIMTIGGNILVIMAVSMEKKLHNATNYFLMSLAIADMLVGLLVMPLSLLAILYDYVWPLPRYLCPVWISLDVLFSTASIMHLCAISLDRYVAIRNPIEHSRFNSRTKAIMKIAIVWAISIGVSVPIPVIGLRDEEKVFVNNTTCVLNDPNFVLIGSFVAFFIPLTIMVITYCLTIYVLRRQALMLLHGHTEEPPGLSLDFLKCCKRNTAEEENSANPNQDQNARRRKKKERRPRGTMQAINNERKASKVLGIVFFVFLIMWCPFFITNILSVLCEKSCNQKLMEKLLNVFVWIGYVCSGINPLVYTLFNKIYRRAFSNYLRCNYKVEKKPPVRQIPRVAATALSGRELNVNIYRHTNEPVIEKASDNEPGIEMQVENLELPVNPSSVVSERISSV
# MEASUREMENT_PROTOCOL: In vitro binding affinity for 5-HT2C receptor ([3H]mesulergine radioligand binding)
# APPLIED_CONDITIONS: human cloned 5-HT2C receptor, read-out: 5-HT2C pIC50 (converted)
OBSERVED_PROPERTY: IC50
# include the unit after the value

Q: Entry under review: O=C(NCc1ccccn1)C1CCN(CC2CC3c4ccccc4Cc4ccc(F)cc4C3O2)CC1 (stereo not shown) . Reported IC50?
Result: 1 nM

Q: Entry under review: OC1(c2ccc(F)cc2)CCN(CC2CC3c4ccccc4Cc4ccc(F)cc4C3O2)C1 (mixture of isomers) . Reported IC50?
Result: 2.29 nM

Q: Entry under review: CC1c2ccccc2C2CC(CN3CCC(O)C3)OC2c2cc(F)ccc21 (mixture of isomers) . Reported IC50?
Result: 1.1 nM

Q: Entry under review: COCCC1CN(C[C@H]2C[C@@H]3c4ccccc4Cc4ccc(F)cc4[C@@H]3O2)CCO1 (stereo partly shown) . Reported IC50?
Result: 5.37 nM

Q: Entry under review: Cc1onc(-c2ccccc2Cl)c1C(=O)NC1CCN(CC2CC3c4ccccc4Cc4ccc(F)cc4C3O2)CC1 (stereo not shown) . Reported IC50?
Result: 19.5 nM

Q: Entry under review: O=C(CSc1ccccc1)NC1CCN(CC2CC3c4ccccc4Cc4ccc(F)cc4C3O2)CC1 (stereo not shown) . Reported IC50?
Result: 6.46 nM

Q: Entry under review: CCC(C)(C)NC(=O)N1CCN(CC2CC3c4ccccc4Cc4ccc(F)cc4C3O2)CC1 (stereo not shown) . Reported IC50?
Result: 20 nM

###

# TESTED_ON: human cloned 5-HT2A receptor, expressed in L929 cells (Homo sapiens, UniProt P28223)
# Construct: expressed in transfected cells; host or cells: L929 cells
# Sequence (P28223 whole entry): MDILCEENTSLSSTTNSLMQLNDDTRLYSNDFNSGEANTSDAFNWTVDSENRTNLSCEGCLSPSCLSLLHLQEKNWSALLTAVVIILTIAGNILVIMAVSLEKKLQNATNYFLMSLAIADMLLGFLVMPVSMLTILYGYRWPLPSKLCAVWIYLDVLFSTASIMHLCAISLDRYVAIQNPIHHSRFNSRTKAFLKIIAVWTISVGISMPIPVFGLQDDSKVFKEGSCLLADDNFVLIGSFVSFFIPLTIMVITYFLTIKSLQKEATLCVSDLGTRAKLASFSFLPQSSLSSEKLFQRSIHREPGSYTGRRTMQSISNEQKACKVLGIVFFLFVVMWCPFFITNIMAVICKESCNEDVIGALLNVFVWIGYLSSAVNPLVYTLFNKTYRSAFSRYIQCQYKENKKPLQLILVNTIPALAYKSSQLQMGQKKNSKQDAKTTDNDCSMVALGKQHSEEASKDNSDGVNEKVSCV
# MEASUREMENT_PROTOCOL: In vitro binding affinity for 5-HT2A receptor ([125I]R91150 radioligand binding)
# APPLIED_CONDITIONS: human cloned 5-HT2A receptor in L929 cells, [125I]R91150
Lab note: anything with 5-HT2A pIC50 below 8 is marked 1.0; values at 8 or higher are marked 0.0.

Q: Determine whether this molecule shows 5-HT2A pIC50 lower than 8 (ties excluded): CC(=O)C1(c2ccccc2)CCN(C[C@H]2C[C@@H]3c4ccccc4Cc4ccc(F)cc4[C@@H]3O2)CC1.O=C(O)C(=O)O [Compound 273]
Result: 0.0

Q: Determine whether this molecule shows 5-HT2A pIC50 lower than 8 (ties excluded): N#CC1=CCN(C[C@H]2C[C@@H]3c4ccccc4Cc4ccc(F)cc4[C@@H]3O2)CC1.O=C(O)C(F)(F)F [Compound 270]
Result: 1.0

Q: Determine whether this molecule shows 5-HT2A pIC50 lower than 8 (ties excluded): N#CC1CCCN(C[C@H]2C[C@@H]3c4ccccc4Cc4ccc(F)cc4[C@@H]3O2)CC1.O=C(O)C(=O)O.O=C(O)C(=O)O (mixture of isomers) [Compound 268]
Result: 0.0

Q: Determine whether this molecule shows 5-HT2A pIC50 lower than 8 (ties excluded): O=C(O)C(=O)O.OC1CCN(CC2CC3c4ccccc4Oc4ccc(Cl)cc4C3O2)CC1 (centres unmarked) [Compound 285]
Result: 0.0

Q: Determine whether this molecule shows 5-HT2A pIC50 lower than 8 (ties excluded): COc1ccc2c(c1)C1OC(CN3CCC(O)CC3)CC1c1ccccc1O2.O=C(O)C(=O)O (racemic) [Compound 288]
Result: 1.0

Q: Determine whether this molecule shows 5-HT2A pIC50 lower than 8 (ties excluded): O=C(O)C(=O)O.OC1CCN(CC2CC3c4ccccc4Oc4ccc(F)cc4C3O2)CC1 (racemic) [Compound 282]
Result: 1.0

Q: Determine whether this molecule shows 5-HT2A pIC50 lower than 8 (ties excluded): O=C(O)C(=O)O.OCC1CCCN(C[C@H]2C[C@@H]3c4ccccc4Cc4ccc(F)cc4[C@@H]3O2)C1 (single isomer, unassigned) [Compound 149]
Result: 0.0

Q: Determine whether this molecule shows 5-HT2A pIC50 lower than 8 (ties excluded): O=C(O)C(=O)O.OCCN1CCCN(C[C@H]2C[C@@H]3c4ccccc4Cc4ccc(F)cc4[C@@H]3O2)CC1 [Compound 269]
Result: 0.0

Q: Determine whether this molecule shows 5-HT2A pIC50 lower than 8 (ties excluded): CC(=O)OCCN1[C@H](C)CN(C[C@H]2C[C@@H]3c4ccccc4Cc4ccc(F)cc4[C@@H]3O2)C[C@@H]1C.O=C(O)C(=O)O [Compound 281]
Result: 0.0

Q: Determine whether this molecule shows 5-HT2A pIC50 lower than 8 (ties excluded): O=C(O)C(=O)O.OCC1CCCN(C[C@H]2C[C@@H]3c4ccccc4Cc4ccc(F)cc4[C@@H]3O2)C1 (single isomer, unassigned) [Compound 148]
Result: 0.0

Q: Determine whether this molecule shows 5-HT2A pIC50 lower than 8 (ties excluded): Fc1ccc2c(c1)[C@@H]1O[C@@H](CN3CCc4ccccc4C3)C[C@@H]1c1ccccc1C2.O=C(O)C(F)(F)F [Compound 275]
Result: 0.0

###

# TESTED_ON: NET (norepinephrine transporter) (Rattus norvegicus, UniProt Q63380)
# Construct: Cortex from rat brain was collected and homogenised; from tissue; host or cells: rat brain cortex
# Sequence (Q63380 1-617): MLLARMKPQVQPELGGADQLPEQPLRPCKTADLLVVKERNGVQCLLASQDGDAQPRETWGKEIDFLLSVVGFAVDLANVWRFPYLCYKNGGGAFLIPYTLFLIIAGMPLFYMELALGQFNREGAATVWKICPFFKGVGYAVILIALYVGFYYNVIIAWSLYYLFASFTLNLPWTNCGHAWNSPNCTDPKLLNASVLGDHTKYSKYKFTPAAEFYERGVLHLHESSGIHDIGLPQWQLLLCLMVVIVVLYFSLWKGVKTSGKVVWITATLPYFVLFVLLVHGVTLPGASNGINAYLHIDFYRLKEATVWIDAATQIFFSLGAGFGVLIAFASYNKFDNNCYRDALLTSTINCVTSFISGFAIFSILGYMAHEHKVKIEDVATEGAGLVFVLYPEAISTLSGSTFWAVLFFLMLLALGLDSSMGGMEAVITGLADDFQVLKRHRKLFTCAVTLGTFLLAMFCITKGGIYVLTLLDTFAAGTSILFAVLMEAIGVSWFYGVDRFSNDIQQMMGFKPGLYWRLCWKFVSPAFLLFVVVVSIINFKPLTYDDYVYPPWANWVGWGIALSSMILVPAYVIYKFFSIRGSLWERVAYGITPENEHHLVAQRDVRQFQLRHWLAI
# MEASUREMENT_PROTOCOL: In vitro determination of NET reuptake inhibition ([3H]Nixosetine binding, rat brain cortex)
# APPLIED_CONDITIONS: rat brain cortex, read-out: NET pIC50 (converted)
OBSERVED_PROPERTY: IC50 (µM)
Number in µM, nothing else.

Q: Entry under review: O=C(NC1CCN(CC2CC3c4ccccc4Cc4ccc(F)cc4C3O2)CC1)c1ccccc1F (stereo not shown) [Compound 232] . Reported IC50?
Result: 4.07

Q: Entry under review: Fc1ccc2c(c1)C1OC(CN3CCN(Cc4cccc(Oc5ccccc5)c4)CC3)CC1c1ccccc1C2 (stereo not shown) [Compound 76] . Reported IC50?
Result: 0.851

Q: Entry under review: N#Cc1ccc2c(c1)[C@H]1C[C@@H](CN3CCC(O)C3)O[C@H]1c1cc(F)ccc1S2 (relative stereo) [Compound 260] . Reported IC50?
Result: 0.912

Q: Entry under review: COC(=O)NC1CCN(CC2CC3c4ccccc4Cc4ccc(F)cc4C3O2)CC1 (stereo not shown) [Compound 210] . Reported IC50?
Result: 7.41

###

# TESTED_ON: NET (norepinephrine transporter) (Rattus norvegicus, UniProt Q63380)
# Construct: Cortex from rat brain was collected and homogenised; from tissue; host or cells: rat brain cortex
# MEASUREMENT_PROTOCOL: In vitro determination of NET reuptake inhibition ([3H]Nixosetine binding, rat brain cortex)
# APPLIED_CONDITIONS: rat brain cortex, read-out: NET pIC50 (converted)
OBSERVED_PROPERTY: IC50

Q: Entry under review: CCCCCC(=Cc1ccccc1)CN1CCN(CC2CC3c4ccccc4Cc4ccc(F)cc4C3O2)CC1 (stereo not shown) . Reported IC50?
Result: 2.14 µM

Q: Entry under review: Fc1ccc2c(c1)C1OC(CN3CCN(C(=S)Nc4ccccc4)CC3)CC1c1ccccc1C2 (stereo not shown) . Reported IC50?
Result: 0.49 µM

Q: Entry under review: O=C(NCc1cccc(C(F)(F)F)c1)N1CCN(CC2CC3c4ccccc4Cc4ccc(F)cc4C3O2)CC1 (stereo not shown) . Reported IC50?
Result: 8.91 µM

Q: Entry under review: COc1ccc(OC2CCN(CC3CC4c5ccccc5Cc5ccc(F)cc5C4O3)C2)cc1 (mixture of isomers) . Reported IC50?
Result: 4.9 µM

###

Please respond with reported D2L pIC50 for every item in the list.
# TESTED_ON: human Dopamine D2L receptor (Homo sapiens)
# Construct: expressed in transfected cells; host or cells: CHO cells
# Sequence (P14416 whole entry): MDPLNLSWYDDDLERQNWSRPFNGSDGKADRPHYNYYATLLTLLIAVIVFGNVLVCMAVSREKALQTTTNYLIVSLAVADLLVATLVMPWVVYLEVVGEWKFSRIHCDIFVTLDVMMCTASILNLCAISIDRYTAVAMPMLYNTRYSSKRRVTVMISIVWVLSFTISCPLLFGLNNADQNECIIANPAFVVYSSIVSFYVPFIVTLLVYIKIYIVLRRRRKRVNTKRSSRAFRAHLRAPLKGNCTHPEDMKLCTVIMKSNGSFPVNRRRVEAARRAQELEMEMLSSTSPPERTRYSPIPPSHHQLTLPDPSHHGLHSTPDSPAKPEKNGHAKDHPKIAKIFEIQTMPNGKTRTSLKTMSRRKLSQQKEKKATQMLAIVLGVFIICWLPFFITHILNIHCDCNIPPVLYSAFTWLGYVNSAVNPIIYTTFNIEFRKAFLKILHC
# MEASUREMENT_PROTOCOL: In vitro binding affinity for human D2L receptor ([3H]Spiperone binding)
# APPLIED_CONDITIONS: human D2L receptor-transfected CHO cell membranes

Q: Entry under review: CC(=O)C1(c2ccccc2)CCN(C[C@H]2C[C@@H]3c4ccccc4Cc4ccc(F)cc4[C@@H]3O2)CC1.O=C(O)C(=O)O [Compound 273] . Reported D2L pIC50?
Result: 7.71

Q: Entry under review: O=C(O)C(=O)O.OCCN1CCCN(C[C@H]2C[C@@H]3c4ccccc4Cc4ccc(F)cc4[C@@H]3O2)CC1 [Compound 269] . Reported D2L pIC50?
Result: 7.83

Q: Entry under review: O=C(O)C(=O)O.OC1CCN(CC2CC3c4ccccc4Oc4ccc(F)cc4C3O2)CC1 (stereo not shown) [Compound 283] . Reported D2L pIC50?
Result: 6.70

Q: Entry under review: O=C(O)C(=O)O.OCC1CCCN(C[C@H]2C[C@@H]3c4ccccc4Cc4ccc(F)cc4[C@@H]3O2)C1 (single isomer, unassigned) [Compound 149] . Reported D2L pIC50?
Result: 8.61

Q: Entry under review: COc1ccc2c(c1)C1OC(CN3CCC(O)CC3)CC1c1ccccc1O2.O=C(O)C(=O)O (racemic) [Compound 287] . Reported D2L pIC50?
Result: 6.17

Q: Entry under review: N#Cc1ccc2c(c1)C1CC(CN3CCC(O)C3)OC1c1cc(F)ccc1S2.O=C(O)C(=O)O (mixture of isomers) [Compound 259] . Reported D2L pIC50?
Result: 6.59

Q: Entry under review: Fc1ccc2c(c1)[C@@H]1O[C@@H](CN3CC=CC3)C[C@@H]1c1ccccc1C2.O=C(O)C(=O)O [Compound 266] . Reported D2L pIC50?
Result: 7.42

Q: Entry under review: N#CC1=CCN(C[C@H]2C[C@@H]3c4ccccc4Cc4ccc(F)cc4[C@@H]3O2)CC1.O=C(O)C(F)(F)F [Compound 270] . Reported D2L pIC50?
Result: 6.67

Q: Entry under review: Fc1ccc2c(c1)[C@@H]1O[C@@H](CN3CCCNCC3)C[C@@H]1c1ccccc1C2.O=C(O)C(=O)O.O=C(O)C(=O)O [Compound 267] . Reported D2L pIC50?
Result: 6.81

Q: Entry under review: O=C(O)C(=O)O.O[C@H]1CCN(C[C@H]2C[C@@H]3c4ccccc4Cc4ccc(F)cc4[C@@H]3O2)C1 [Compound 3] . Reported D2L pIC50?
Result: 8.01

Q: Entry under review: CC1CN(CC2CC3c4ccccc4Cc4ccc(F)cc4C3O2)C(C)CN1.O=C(O)C(=O)O (mixture of isomers) [Compound 280] . Reported D2L pIC50?
Result: 5.40

Q: Entry under review: N#CC1CCCN(C[C@H]2C[C@@H]3c4ccccc4Cc4ccc(F)cc4[C@@H]3O2)CC1.O=C(O)C(=O)O.O=C(O)C(=O)O (mixture of isomers) [Compound 268] . Reported D2L pIC50?
Result: 7.92

Q: Entry under review: O=C(O)C(=O)O.OCC1CCCN(C[C@H]2C[C@@H]3c4ccccc4Cc4ccc(F)cc4[C@@H]3O2)C1 (single isomer, unassigned) [Compound 148] . Reported D2L pIC50?
Result: 8.35
